- assay.explanation: Acute toxicity in mice upon oral administration
- Assay type: in vivo
- measurement.parameters: mouse, in vivo, acute
endpoint.name: LD50

{"molecule": "OC[C@H]1O[C@H](O[C@H]2[C@H](O)[C@@H](O)[C@@H](O[C@H]3[C@H](O)[C@@H](O)[C@@H](O[C@H]4O[C@H](CO)[C@@H](O[C@H]5O[C@H](CO)[C@@H](O[C@H]6O[C@H](CO)[C@@H](O)[C@H](O)[C@H]6O)[C@H](O)[C@H]5O)[C@H](O)[C@H]4O)O[C@@H]3CO)O[C@@H]2CO)[C@H](O)[C@@H](O)[C@@H]1O [maltotriosyl maltotrioside]", "measured.value": "≥ 50000 mg/kg"}
{"molecule": "OC[C@H]1O[C@H](O[C@H]2[C@H](O)[C@@H](O)[C@@H](O[C@H]3O[C@H](CO)[C@@H](O[C@H]4O[C@H](CO)[C@@H](O[C@H]5O[C@H](CO)[C@@H](O)[C@H](O)[C@H]5O)[C@H](O)[C@H]4O)[C@H](O)[C@H]3O)O[C@@H]2CO)[C@H](O)[C@@H](O)[C@@H]1O [maltotriosyl maltoside]", "measured.value": "≥ 50000 mg/kg"}

Now for a further molecule.
Requested read-out: LD50. Entry: OC[C@H]1O[C@H](O[C@H]2[C@H](O)[C@@H](O)[C@@H](O[C@H]3O[C@H](CO)[C@@H](O[C@H]4O[C@H](CO)[C@@H](O)[C@H](O)[C@H]4O)[C@H](O)[C@H]3O)O[C@@H]2CO)[C@H](O)[C@@H](O)[C@@H]1O [maltosyl maltoside]
≥ 50000 mg/kg
